This listing pairs compounds with measured Avg % ID, Carcass.
assay: Biodistribution of radiometal-DOTA-BBN conjugates in CF1 normal mice; conditions: 1 hour post-injection
Expressed in % ID, but write only the number.

# count of solved cases: 2
CSCC[C@H](NC(=O)[C@H](CC(C)C)NC(=O)[C@H](Cc1c[nH]cn1)NC(=O)CNC(=O)[C@@H](NC(=O)[C@H](C)NC(=O)[C@H](Cc1c[nH]c2ccccc12)NC(=O)[C@H](CCC(N)=O)NC(=O)CCCCNC(=O)CN1CCN(CC(=O)O)CCN(CC(=O)O)CCN(CC(=O)O)CC1)C(C)C)C(N)=O [149Pm-DOTA-5-Ava-BBN[7-14]NH2]: 6.16
CSCC[C@H](NC(=O)[C@H](CC(C)C)NC(=O)[C@H](Cc1cnc[nH]1)NC(=O)CNC(=O)[C@@H](NC(=O)[C@H](C)NC(=O)[C@H](Cc1c[nH]c2ccccc12)NC(=O)[C@H](CCC(N)=O)NC(=O)CN1CCN(CC(=O)O)CCN(CC(=O)O)CCN(CC(=O)O)CC1)C(C)C)C(N)=O [111In-DOTA-0-BBN[7-14]NH2] [metal not drawn]: 1.78

Read the next record carefully.
### Prompt // Avg % ID, Carcass lookup, key: CSCC[C@H](NC(=O)[C@H](CC(C)C)NC(=O)[C@H](Cc1cnc[nH]1)NC(=O)CNC(=O)[C@@H](NC(=O)[C@H](C)NC(=O)[C@H](Cc1c[nH]c2ccccc12)NC(=O)[C@H](CCC(N)=O)NC(=O)CCNC(=O)CN1CCN(CC(=O)O)CCN(CC(=O)O)CCN(CC(=O)O)CC1)C(C)C)C(N)=O [149Pm-DOTA-β-Ala-BBN[7-14]NH2]
### Response 1.64

###

This listing pairs molecules with measured Avg % ID/gm, Muscle.
assay: Biodistribution of radiometal-DOTA-BBN conjugates in CF1 normal mice; conditions: 1 hour post-injection
Expressed in % ID/gm, but write only the number.

# count of solved cases: 3
CSCC[C@H](NC(=O)[C@H](CC(C)C)NC(=O)[C@H](Cc1cnc[nH]1)NC(=O)CNC(=O)[C@@H](NC(=O)[C@H](C)NC(=O)[C@H](Cc1c[nH]c2ccccc12)NC(=O)[C@H](CCC(N)=O)NC(=O)CN1CCN(CC(=O)O)CCN(CC(=O)O)CCN(CC(=O)O)CC1)C(C)C)C(N)=O [149Pm-DOTA-0-BBN[7-14]NH2]: 0.00
CSCC[C@H](NC(=O)[C@H](CC(C)C)NC(=O)[C@H](Cc1c[nH]cn1)NC(=O)CNC(=O)[C@@H](NC(=O)[C@H](C)NC(=O)[C@H](Cc1c[nH]c2ccccc12)NC(=O)[C@H](CCC(N)=O)NC(=O)CCCCNC(=O)CN1CCN(CC(=O)O)CCN(CC(=O)O)CCN(CC(=O)O)CC1)C(C)C)C(N)=O [111In-DOTA-5-Ava-BBN[7-14]NH2] [metal not drawn]: 0.05
CSCC[C@H](NC(=O)[C@H](CC(C)C)NC(=O)[C@H](Cc1cnc[nH]1)NC(=O)CNC(=O)[C@@H](NC(=O)[C@H](C)NC(=O)[C@H](Cc1c[nH]c2ccccc12)NC(=O)[C@H](CCC(N)=O)NC(=O)CN1CCN(CC(=O)O)CCN(CC(=O)O)CCN(CC(=O)O)CC1)C(C)C)C(N)=O [177Lu-DOTA-0-BBN[7-14]NH2] [metal not drawn]: 0.09

Read the next record carefully.
### Prompt // Avg % ID/gm, Muscle lookup, key: CSCC[C@H](NC(=O)[C@H](CC(C)C)NC(=O)[C@H](Cc1cnc[nH]1)NC(=O)CNC(=O)[C@@H](NC(=O)[C@H](C)NC(=O)[C@H](Cc1c[nH]c2ccccc12)NC(=O)[C@H](CCC(N)=O)NC(=O)CCCCCCCNC(=O)CN1CCN(CC(=O)O)CCN(CC(=O)O)CCN(CC(=O)O)CC1)C(C)C)C(N)=O [177Lu-DOTA-8-Aoc-BBN[7-14]NH2] [metal not drawn]
### Response 0.17
